- System: SF-268 CNS
- Experiment Notes: NCI-60 one-dose screen, 48 h (100 = growth as untreated, 0 = no growth, -100 = all killed)
- Condition Notes: 10 µM unless noted
The panel holds about 83,000 compounds, 20% with a hit somewhere; the sample as a whole holds those more often.
Grouping by measured growth is done with the following cut points: Low: < 50%; Mid: ≥ 50% and < 90%; High: ≥ 90%

INSERT INTO measurements (compound, assigned_label) VALUES
  ('C=C(C)[C@@H]1CC[C@]2(C(N)=O)CC[C@]3(C)[C@H](CC[C@@H]4[C@@]5(C)CCCNC(C)(C)[C@@H]5CC[C@]43C)[C@@H]12', 'Mid'),
  ('Cc1cc(O)cc(O)c1N=NC1=NCCS1', 'High'),
  ('COc1ccc2[nH]c(=O)c(/C=C/C(=O)/C=C/c3ccc(O)c(OC)c3)cc2c1', 'Low'),
  ('CCN1CCN(Cc2ccc(NC(=O)c3cccc(C#Cc4cccc5[nH]nc(N)c45)c3)cc2C(F)(F)F)CC1', 'Low'),
  ('Nc1c(C(=O)Nc2ccccn2)sc2nc3c(cc12)C(=O)CCC3', 'Mid'),
  ('Cc1cccc(C)c1NC(=O)CN(CC(C)C)CC(O)COc1ccccc1 (stereo not drawn)', 'High'),
  ('C=CCn1c(SCC(=O)Nc2ccc(C(=O)/C=C/c3cc(OC)c(OC)c(OC)c3)cc2)nnc1-c1ccccc1', 'High'),
  ('CCCCn1c2cc(OCc3cn(-c4ccc(Cl)cc4)nn3)ccc2c2ccnc(C)c21', 'Mid'),
  ('O=CN1N=C(c2ccc(Cl)cc2)CC1c1cccc(Nc2ccnc3cc(C(F)(F)F)ccc23)c1 (stereo not drawn)', 'Mid'),
  ('Cc1nccc2c3ccc(OCc4cn(-c5ccc(Br)cc5)nn4)cc3n(CC(C)C)c12', 'Mid'),
  ('COc1ccc(-c2nc(C#N)c(NCC(c3ccco3)N3CCCC3)o2)cc1 (stereo not drawn)', 'Mid'),
  ('COCCOCCOCc1n(Cc2ccc3ccccc3c2)c2ccccc2[n+]1Cc1ccc2ccccc2c1', 'Low'),
  ('Cc1cc(NC(=O)CNc2nc(Oc3ccc(F)cc3)nc(-c3ccc(F)cc3)n2)ccc1Cl', 'High'),
  ('COC(=O)c1ccc2c(c1)NC(=O)[C@@H]1CCCN21', 'High'),
  ('COc1cc(C2=NN(C(C)=O)C(c3cccc(Nc4ccnc5cc(C(F)(F)F)ccc45)c3)C2)cc(OC)c1OC (stereo not drawn)', 'Mid'),
  ('O=Cc1[nH]c(Sc2ccccc2)c2ccccc12', 'Mid'),
  ('COc1cc2c(Nc3ccc(NC(=O)Nc4ccc(Cl)c(C(F)(F)F)c4)c(Cl)c3)ncnc2cc1OCCCN1CCN(C)CC1', 'Low'),
  ('CCOC(=O)C(=Cc1c(-c2ccccc2)[nH]c2ccccc12)C(=O)OCC', 'Mid'),
  ('C#C[C@@]1(O)[C@@H](CO)O[C@@H](n2cc(I)c3c(N)ncnc32)[C@@H]1O', 'Low'),
  ('CC(=O)Nc1c(C(=O)Nc2ccccc2)sc2nc3c(cc12)C(OC(C)=O)CCC3 (stereo not drawn)', 'High'),
  ('CC1(C)CC[C@]2(c3nnc(-c4ccncc4)o3)CC[C@]3(C)C(=CC[C@@H]4[C@@]5(C)CCC(=O)C(C)(C)[C@@H]5CC[C@]43C)[C@@H]2C1', 'Mid'),
  ('COc1ccc(-c2cc(-c3nnc(SCC(=O)Nc4ccc(/C(C)=N\O)cc4)n3-c3ccccc3)c3cc(OC)ccc3n2)cc1', 'Mid'),
  ('C=C1C(=O)O[C@H]2[C@H]1CC/C(COC(=O)c1cc3ccccc3o1)=C\CC[C@@]1(C)O[C@@H]21', 'Low'),
  ('COc1ccc(-c2cc(-c3nnc(SCC(=O)Nc4ccc(/C(C)=N\O)cc4)o3)c3ccccc3n2)cc1', 'High'),
  ('Nc1ccccc1NS(=O)(=O)c1ccc(Cl)cc1', 'High'),
  ('COc1cc(-c2nn(-c3ccc(Br)cc3)cc2CO)ccc1O', 'Mid'),
  ('Cc1cc(C)cc(Nc2nccc(-c3c(-c4ccc(F)cc4)ncn3C3CCNCC3)n2)c1', 'Low'),
  ('Cc1cc(C)c2nc(Nc3nc(C)c(C)c(=O)[nH]3)nc(C)c2c1', 'Low'),
  ('CCCn1cc(/C=N\N=C2\C(=O)Nc3ccc(C)cc32)c2ccccc21', 'Low'),
  ('CCCCc1ccc(N=Nc2ccc(OCC[N+](C)(C)C)cc2)cc1', 'Low'),
  ('CCOC(=O)NC(Cc1ccccc1)c1ccccc1 (stereo not drawn)', 'High'),
  ('O=C(/C(=C/c1ccc([N+](=O)[O-])cc1)SCc1ccc(Cl)cc1)c1ccc(F)cc1', 'Mid'),
  ('O=[N+]([O-])c1ccc(Oc2ccc(-c3ccccc3)cc2)cc1', 'High');
